B1: SNURF (parent)
chain: QVPVVDFQAELRQAFLAETPRGG

variants of: B1; test: protein stability index of a GFP-peptide fusion (GPS, HEK-293T) (PSI 1-6); higher = more stable; conditions: c terminus: native;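 further: lentivirally expressed fusions sorted by FACS into six bins by GFP to DsRed ratio, PSI derived from sequencing read proportions per bin multiplied by bin number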
Overview of recorded protein stability index for various variants
Measurement label: protein stability index

INSERT INTO assay_data (sequence_variant, measurement_label, result) VALUES
  ('Q13C', 'protein stability index', 1.71),
  ('G23Y', 'protein stability index', 3.06),
  ('E10D', 'protein stability index', 2.15),
  ('V4F', 'protein stability index', 3.43),
  ('T19K', 'protein stability index', 3.17),
  ('D6E', 'protein stability index', 4.69),
  ('V2K', 'protein stability index', 3.98),
  ('V4W', 'protein stability index', 2.09),
  ('Q13G', 'protein stability index', 4.32),
  ('V2Q', 'protein stability index', 1.5),
  ('A9D', 'protein stability index', 2.47),
  ('E10P', 'protein stability index', 2.93),
  ('G23L', 'protein stability index', 3.09),
  ('G23I', 'protein stability index', 2.06),
  ('V5F', 'protein stability index', 2.39),
  ('P3D', 'protein stability index', 3.02),
  ('V5H', 'protein stability index', 3.52),
  ('V4L', 'protein stability index', 2.5),
  ('R21N', 'protein stability index', 2.15),
  ('A14K', 'protein stability index', 3.05),
  ('F7W', 'protein stability index', 2.9),
  ('F7S', 'protein stability index', 3.5);
